Test: binders of probe aFSTL3 on microarray, primary screen, stem cell growth factor project, biochemical, small-molecule microarray, fluorescence 635/667 (AID 1064);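 note: measures binding of the biotinylated anti-FSTL3 antibody to printed compounds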
Details: higher = more signal
In this scheme, each record receives a class according to its composite z-score; the ranges are bin A: < -0.2; bin B: ≥ -0.2 and < 0.3; bin C: ≥ 0.3

# input Which category does the recorded composite z-score put `COC(=O)[C@@]1(Cc2ccc(F)cc2)[C@H]2c3cc(C(=O)N4CCCC4)n(Cc4ccc(S(C)(=O)=O)cc4)c3C[C@H]2CN1C(=O)c1ccccc1` in?
# output bin C

====

Experiment: basal RPMI8226 mitochondrial membrane potential changes, profiling panel, cell-based, JC-1 fluorescence, 24 h, 100 nL compound (AID 1169); note: test concentration not given here
Conditions: RPMI8226 myeloma, JC-1 mitochondrial potential fluorescence, higher = more signal
z-score below -0.09 gives Not met; z-score at or above it gives Met.

Field: example entries. Status: answers known.
Cc1ccc(S[C@]2(C(=O)NCCCN(C)C)CC(=O)N(Cc3cc(C(F)(F)F)cc(C(F)(F)F)c3)[C@@H]2c2ccc(CO)cc2)cc1 = Met
COC(=O)[C@@]1(Cc2ccc(OC)cc2)[C@H]2c3cc(C(=O)N(C)C)n(Cc4ccc(S(C)(=O)=O)cc4)c3C[C@H]2CN1C(=O)c1ccccc1 = Met
C=CCOC(=O)[C@H]1[C@@H]2C(=O)O[C@@H](c3ccccc3)[C@@H](c3ccccc3)N2[C@@H](c2ccc(OCCOC(=O)[C@H]3C[C@H]4C(=O)N[C@@H](CCCC[N+](C)(C)C)C(=O)N4[C@H]3c3ccc(O)cc3)cc2)[C@]12C(=O)Nc1ccc(I)cc12 = Met
COc1cc2c(cc1OC)CN(C(=O)[C@H]1[C@@H]3C(=O)O[C@@H](c4ccccc4)[C@@H](c4ccccc4)N3[C@@H](c3ccc(O)cc3)[C@]13C(=O)Nc1ccc(C#CCCO)cc13)CC2 = Not met
CC(C)OC(=O)C=C1C[C@@H](c2ccccn2)O[C@@H](c2ccccn2)O1 = Met
COc1ccc([Si](C)(C)[C@H]2[C@H](CC(=O)N3Cc4ccccc4C[C@H]3CO)O[C@@]3(C(=O)N(Cc4cccc(N5CCC5=O)c4)c4ccccc43)[C@@H]2C)cc1 = Not met

Continue with the next molecule.
# input Would you say `COCCOC(=O)N1C(=O)[C@@]2(c3ccccc31)[C@H](C(=O)N1CCc3cc(OC)c(OC)cc3C1)[C@H]1C(=O)O[C@H](c3ccccc3)[C@H](c3ccccc3)N1[C@@H]2c1ccc(OCCO)cc1` shows z-score at minimum -0.09?
# output Not met

====

Item-by-item account of z-score
Experiment: CREB reporter modulators without forskolin, primary screen, cell-based, PC12, CRE-LacZ reporter, unstimulated (AID 1145)
Details: no forskolin, luminescence, 4.5 h, higher = more signal, called active from +8 up or from −8 down
Answer with a bare number; do not write a unit.

COC(=O)[C@@]1(Cc2ccccc2)[C@H]2c3cc(C(=O)N4CCCC4)n(Cc4ccc(S(C)(=O)=O)cc4)c3C[C@H]2CN1C(=O)c1ccccc1 = 0.959
CCCC#C[Si](O[C@H](CC)c1cn(Cc2cccc(Cl)c2)nn1)(C(C)C)C(C)C = -0.505
O=C(c1ccccc1)N1Cc2ccccc2C[C@@]2(COC(c3ccc(OCCCO)cc3)=N2)C1=O = 2.72

# input Identify z-score associated with the compound `O=C1C[C@@](C(=O)NCC(F)(F)F)(c2ccc([N+](=O)[O-])cc2)[C@@H](c2ccc(CO)cc2I)N1C1CCCCC1`
# output 0.558

# input Identify z-score associated with the compound `COC(=O)[C@@]1(Cc2ccc(OC)cc2)[C@H]2c3cc(C(=O)N(C)C)n(Cc4ccccn4)c3C[C@H]2CN1C(=O)c1ccccc1`
# output 1.16

# input Identify z-score associated with the compound `COCCOC(=O)N1C(=O)[C@@]2(c3cc(C#CC4(O)CCCCCC4)ccc31)[C@H](c1ccc(OCCO)cc1)N1[C@H](c3ccccc3)[C@H](c3ccccc3)OC(=O)[C@H]1[C@@H]2C(=O)N1CCN(c2ncccn2)CC1`
# output 0.346

# input Identify z-score associated with the compound O=C1C2C=CC(C(O)c3cccc4ccccc34)N(Nc3ccccc3F)C2C(=O)N1c1ccccc1 (configuration not stated)
# output -0.62
